Tested on: KB
Test: Cytotoxicity against human KB cells
Format: functional, cell-based
Criterion: IC50 strictly under 6 nM. Met: YES. Not met: NO.

See these solved cases before continuing.
Molecule: CC(=O)O[C@@]12CO[C@@H]1C[C@H](O)[C@@]1(C)C(=O)[C@H](O)C3=C(C)[C@@H](OC(=O)[C@H](O)[C@@H](NC(=O)OC(C)(C)C)c4ccccc4)C[C@@](O)([C@@H](OC(=O)c4ccccc4)[C@H]21)C3(C)C
Experimental target: KB
Label: YES
--
Molecule: COc1cc2c(O[C@@H]3O[C@H](CO[C@@H]4OC[C@H](O)[C@H](O)[C@H]4O)[C@H](OC(C)=O)[C@H](OC(C)=O)[C@H]3O)c3c(c(-c4ccc5c(c4)OCO5)c2cc1OC)C(=O)OC3 [4'-O-ACETYLMANANTHOSIDE B]
Experimental target: KB
Label: NO
--
Molecule: COc1cc2c(O[C@@H]3O[C@H](C)[C@@H](OC(C)=O)[C@H](OC(C)=O)[C@H]3OC(C)=O)c3c(c(-c4ccc5c(c4)OCO5)c2cc1OC)C(=O)OC3
Experimental target: KB
Label: NO

Input line: Please state whether IC50 is below 6 nM for "COc1cc2c(O[C@@H]3O[C@H](CO[C@@H]4OC[C@H](OC(C)=O)[C@H](OC(C)=O)[C@H]4OC(C)=O)[C@H](OC(C)=O)[C@H](OC(C)=O)[C@H]3OC(C)=O)c3c(c(-c4ccc5c(c4)OCO5)c2cc1OC)C(=O)OC3"
Output line: NO

Input line: Please state whether IC50 is below 6 nM for O=C(CC(CO)C(=O)c1ccc2c(c1)OCO2)c1ccc2c(c1)OCO2 (stereo not given)
Output line: NO

Input line: Please state whether IC50 is below 6 nM for "COc1cc2c(O[C@H]3O[C@@H](C)[C@@H](OC(C)=O)[C@@H](O)[C@@H]3O)c3c(c(-c4ccc5c(c4)OCO5)c2cc1OC)C(=O)OC3"
Output line: NO

Input line: Please state whether IC50 is below 6 nM for "COc1cc(OC)c2c(-c3ccc4c(c3)OCO4)c3c(c(OC)c2c1O)COC3=O"
Output line: NO

Input line: Please state whether IC50 is below 6 nM for "COc1cc2c(O[C@@H]3O[C@H](C)[C@@H](O)[C@H](O)[C@H]3O)c3c(c(-c4ccc5c(c4)OCO5)c2cc1OC)C(=O)OC3"
Output line: YES

Input line: Please state whether IC50 is below 6 nM for "COc1cc2c(O[C@H]3O[C@@H](C)[C@@H](OC(C)=O)[C@@H](OC(C)=O)[C@@H]3OC(C)=O)c3c(c(-c4ccc5c(c4)OCO5)c2cc1OC)C(=O)OC3"
Output line: NO
